Target: L-Lactate Oxidase (Enterococcus casseliflavus, UniProt C9AC47)
Sequence (C9AC47 1-367): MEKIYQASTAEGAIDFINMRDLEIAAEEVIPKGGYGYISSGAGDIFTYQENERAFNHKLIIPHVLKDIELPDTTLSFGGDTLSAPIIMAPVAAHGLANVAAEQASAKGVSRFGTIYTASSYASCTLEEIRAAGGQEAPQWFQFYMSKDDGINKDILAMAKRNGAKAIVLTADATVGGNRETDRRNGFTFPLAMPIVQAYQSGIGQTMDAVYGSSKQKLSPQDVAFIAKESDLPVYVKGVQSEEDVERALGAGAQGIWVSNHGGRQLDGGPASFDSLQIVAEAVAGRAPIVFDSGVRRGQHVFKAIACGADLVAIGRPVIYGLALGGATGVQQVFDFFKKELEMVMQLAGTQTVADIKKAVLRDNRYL
Test: biochemical
Conditions: compound at 5 mM; 30° C.; pH 7.0; rate without compound = 100%; read-out: L-Lactate Oxidase Percent Inhibition
Would you mind telling me the reported inhibition at 5000 µM of each entry?
Note: unit % is implicit; provide only the numeric part.

I'd like to know its inhibition at 5000 µM. The molecule in question is O=C(O)CO [Glycolic Acid]
90

State the recorded inhibition at 5000 µM for this entry: O=C(O)C(O)C(=O)O [Tartronic Acid]
10

Which inhibition at 5000 µM reading was recorded for the molecule NC(=O)C(N)=O [Oxamide] ?
43

Quick one: inhibition at 5000 µM for NC(=O)C(=O)O [Oxamic Acid] ?
40

Which measured inhibition at 5000 µM value corresponds to O=CC(=O)O [Glyoxalic Acid] ?
100

Which inhibition at 5000 µM is listed for CC(O)C(N)=O (stereo not drawn) [Lactamide] ?
0

So what's the measured inhibition at 5000 µM for this one? CCC(O)C(=O)O (stereo not drawn) [α-Hydroxybutyric Acid]
7

So what does the record say about inhibition at 5000 µM for O=C(O)C(=O)O [Oxalic Acid] ?
94

So what's the measured inhibition at 5000 µM for this one? O=C(O)CC(=O)O [Malonic Acid]
30

Query (molecule): O=C(O)CC(O)C(=O)O (stereo not drawn) [Malic Acid] ; field requested: inhibition at 5000 µM
0

Request the reported inhibition at 5000 µM associated with O=C(O)C(O)CO (racemic) [Glyceric Acid]
21

Would you mind telling me what inhibition at 5000 µM value was observed for CC(O)CC(=O)O (stereo not drawn) [β-Hydroxybutyric Acid] ?
0
